# EXPERIMENTAL TARGET: Guanidinoacetate N-methyltransferase (Homo sapiens) (UniProt Q14353)
# METHOD SUMMARY: Confirmatory Screen for Target Class Profiling of Small Molecule Inhibitors of Methyltransferases (AID 1745852); further: on the % scale 0 is the no-effect control and ±100 the full control effect
# EXPERIMENTAL PARAMETERS: MTase-Glo luminescence, SAH detection, recombinant enzyme; at 57.3 µM (top of the series) unless noted
The entries below come with measured activity change, negative = inhibition values attached.

smiles_string=COc1ccnc(-c2nnc3ccc(Nc4cc(OC)c(OC)c(OC)c4)nn23)c1 experimental_target="Guanidinoacetate N-methyltransferase (Homo sapiens) (UniProt Q14353)" reported_measurement="-8.44% [at 85.7 µM]"
smiles_string=COC1CCN(c2cc(-c3ccsc3)nc3c(C)noc23)CC1 experimental_target="Guanidinoacetate N-methyltransferase (Homo sapiens) (UniProt Q14353)" reported_measurement="-0.422% [at 85.7 µM]"
smiles_string=Cn1nccc1-c1cc2c(cn1)CN(Cc1ccncc1)CCN2 experimental_target="Guanidinoacetate N-methyltransferase (Homo sapiens) (UniProt Q14353)" reported_measurement="1.99% [at 85.7 µM]"

Field request: activity change, negative = inhibition | item: COc1ccc2nc([C@H]3CCN(C4CCCCC4)C3)[nH]c2c1
4.16% [at 85.7 µM]

What about c1ccc(CO[C@H]2COCCN(c3nc4ccccc4o3)C2)cc1 ?
2.9% [at 85.7 µM]

What about CC1(C)[C@H](Cc2cc(-c3ccccc3)on2)C[C@@H]1NCC1CC1 ?
-0.152% [at 85.7 µM]

What about COc1cccc(Nc2cc3c(cn2)CN(Cc2cccnc2)CCN3)c1 ?
2.65% [at 85.7 µM]

----------
# EXPERIMENTAL TARGET: Rap guanine nucleotide exchange factor 3 (Homo sapiens)
# METHOD SUMMARY: Counterscreen qHTS for agonist of cAMP-regulated guanine nucleotide exchange factor 3 (EPAC1) (AID 1645889); further: % of control where 0% means no effect; nearly all actives have a fitted effect of over 40% in size
# EXPERIMENTAL PARAMETERS: EPAC1 Rap1B-BODIPY-GDP exchange, fluorescence; series mostly up to 154 µM
Records with an inconclusive call do not appear. The source made the active and inactive calls. Calls follow the shape of the dose curve; as a rule, active = well fitted activation curve with a large enough effect; inconclusive = small, poorly fitted or top-dose-only effect, or another doubt; inactive = no such curve, though single readings can be large or run the other way.
QUANTITY MEASURED: activation

As a guide, the following entries are already answered.
molecule=O=S1(=O)[C@H]2CC3O[C@]2(C[C@@H]3c2ccc(F)cc2)CN1Cc1ccc(Cl)cc1 reported_measurement=inactive
molecule=COc1ccc(CN(C)C(=O)c2ccc(OCC(=O)Nc3cccc(C(F)(F)F)c3)c(OC)c2)c(OC)c1 reported_measurement=inactive
molecule="CCOC(=O)C1=C(N)c2ccccc2CC1C1CCCC1 (stereo not given)" reported_measurement=inactive
molecule=Cc1ccc(Nc2ccc(N3CCN(C(=O)c4ccc([N+](=O)[O-])cc4)CC3)nn2)cc1 reported_measurement=inactive
molecule=CCOc1cc(/C=C/c2cc(C(=O)O)c3ccccc3n2)ccc1OC reported_measurement="6.45% [at 30.8 µM] (inactive)"
molecule=Cc1ccn2c(=O)c(NC(=O)c3ccc(Br)o3)c(C)nc2c1 reported_measurement="-2.62% [at 30.8 µM] (inactive)"
molecule=Cc1ccc(C)c(Cn2nc(-c3cc(C)ccc3C)ccc2=O)c1 reported_measurement=inactive
molecule=CCCCCCn1nc(C(=O)OCC(=O)c2c(N)n(C)c(=O)n(C)c2=O)c2ccccc2c1=O reported_measurement=inactive

Field request: activation | item: Cc1csc(N=Nc2ccc(N(C)C)cc2)[n+]1[O-]
inactive

What about COC(=O)/N=C(/Cc1ccc(OC)cc1)c1ccc(OC)cc1 ?
inactive

What about C=CCn1cc(C(=O)NCCCOC)c(=O)c2cc(S(=O)(=O)N(CC)CC)ccc21 ?
inactive

What about O=c1c2ccccc2c(C=Nc2ccc(O)cc2)c(O)n1Cc1ccccc1 ?
1.81% [at 30.8 µM] (inactive)

What about Cc1[nH]n(-c2ncc(-c3ccccc3)s2)c(=O)c1C(c1ccc(Cl)cc1)C(C#N)C#N (stereo not given) ?
13% [at 30.8 µM] (inactive)

What about Cc1cc(C)c2cccc(N)c2n1 ?
7.96% [at 30.8 µM] (inactive)

What about NS(=O)(=O)c1ccc(N=Nc2c[nH]c(=O)c(O)c2)cc1 ?
inactive

----------
# EXPERIMENTAL TARGET: Rap guanine nucleotide exchange factor 4 (Homo sapiens) (UniProt Q8WZA2)
# Sequence (Q8WZA2 whole entry, looked up): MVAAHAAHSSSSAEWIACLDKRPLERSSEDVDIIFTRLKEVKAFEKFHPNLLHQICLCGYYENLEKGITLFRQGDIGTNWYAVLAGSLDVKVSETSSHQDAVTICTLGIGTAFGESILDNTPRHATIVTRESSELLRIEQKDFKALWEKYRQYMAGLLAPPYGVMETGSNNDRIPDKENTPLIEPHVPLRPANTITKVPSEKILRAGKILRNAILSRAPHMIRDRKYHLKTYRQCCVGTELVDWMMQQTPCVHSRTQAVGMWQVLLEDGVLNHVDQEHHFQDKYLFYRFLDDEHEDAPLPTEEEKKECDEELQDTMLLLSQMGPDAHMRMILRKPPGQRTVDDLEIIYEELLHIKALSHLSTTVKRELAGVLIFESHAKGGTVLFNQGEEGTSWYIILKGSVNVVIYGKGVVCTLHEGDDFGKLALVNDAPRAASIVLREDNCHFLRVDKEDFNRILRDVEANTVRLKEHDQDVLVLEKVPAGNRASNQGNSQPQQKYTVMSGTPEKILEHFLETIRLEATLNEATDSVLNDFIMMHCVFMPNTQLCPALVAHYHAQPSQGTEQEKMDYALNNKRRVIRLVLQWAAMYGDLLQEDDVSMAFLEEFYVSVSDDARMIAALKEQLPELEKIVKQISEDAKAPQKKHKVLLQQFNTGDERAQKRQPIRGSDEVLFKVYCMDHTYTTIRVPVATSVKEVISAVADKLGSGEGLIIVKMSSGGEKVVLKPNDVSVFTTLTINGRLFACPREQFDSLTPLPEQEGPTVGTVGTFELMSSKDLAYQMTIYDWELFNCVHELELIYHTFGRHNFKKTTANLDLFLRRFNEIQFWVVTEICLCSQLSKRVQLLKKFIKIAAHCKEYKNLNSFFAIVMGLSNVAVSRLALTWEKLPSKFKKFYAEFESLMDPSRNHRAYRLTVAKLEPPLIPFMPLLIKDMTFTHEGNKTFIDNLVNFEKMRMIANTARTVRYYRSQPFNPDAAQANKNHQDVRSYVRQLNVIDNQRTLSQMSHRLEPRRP
# METHOD SUMMARY: Confirmatory qHTS for antagonist of cAMP-regulated guanine nucleotide exchange factor 4 (EPAC2) (AID 1645885); further: nearly all actives have a fitted effect of over 25% in size; further: potency means the concentration at half of the fitted maximal effect
# EXPERIMENTAL PARAMETERS: EPAC2 Rap1B-BODIPY-GDP exchange fluorescence, biochemical; series mostly up to 12.7 µM
Records with an inconclusive call do not appear. The source made the active and inactive calls. Calls follow the shape of the dose curve; as a rule, active = well fitted inhibition curve with a large enough effect; inconclusive = small, poorly fitted or top-dose-only effect; inactive = no such curve, though single readings can be large or run the other way.
QUANTITY MEASURED: Potency

compound=COc1ccccc1Oc1nc(-c2cccnc2)nc2ccccc12 quantity_measured=Potency reported_measurement="67.5 µM (active)"
compound=COc1ccccc1N(CC(=O)Nc1cc(C)on1)S(=O)(=O)c1ccc(Cl)cc1 quantity_measured=Potency reported_measurement=inactive
compound="CC(C)OC(=O)C(C#N)c1nc2ccccc2nc1N1CCCC1 (centres undefined)" quantity_measured=Potency reported_measurement=inactive
compound="CC(=O)N1CCC[C@H]1C(=O)NCC1Cc2cc(-c3cccc(OC(F)(F)F)c3)ccc2O1 (some centres undefined)" quantity_measured=Potency reported_measurement="44.1 µM (active)"

----------
# EXPERIMENTAL TARGET: Guanidinoacetate N-methyltransferase (Homo sapiens) (UniProt Q14353)
# METHOD SUMMARY: Confirmatory Screen for Target Class Profiling of Small Molecule Inhibitors of Methyltransferases (AID 1745852); further: on the % scale 0 is the no-effect control and ±100 the full control effect
# EXPERIMENTAL PARAMETERS: MTase-Glo luminescence, SAH detection, recombinant enzyme; at 57.3 µM (top of the series) unless noted
The entries below come with measured activity change, negative = inhibition values attached.
Form entry: value (% [at 85.7 µM]) — number only.

As a guide, the following entries are already answered.
smiles_string=CN1CCC(N2C[C@@H]3C[C@H]2C(=O)N(CC2CC2)c2ccccc2O3)CC1 quantity_measured="activity change, negative = inhibition" reported_measurement=2.68
smiles_string=CC(=O)Nc1cccc(-c2cc3c(cn2)CN(Cc2ccccc2)CCN3)c1 quantity_measured="activity change, negative = inhibition" reported_measurement=0.249

Here is the next item to consider.
Field request: activity change, negative = inhibition | item: CN1CCN(C)c2cnc(-c3cnn(Cc4ccccc4)c3)cc2C1
5.27

----------
# EXPERIMENTAL TARGET: Glutathione peroxidase 1 (Homo sapiens)
# METHOD SUMMARY: Primary qHTS Assay for Inhibitors of Recombinant Selenoprotein Glutathione Peroxidase 1 (GPX1) (AID 1845191); further: nearly all actives have a fitted effect of over 65% in size
# EXPERIMENTAL PARAMETERS: recombinant GPX1, GR-coupled NADPH fluorescence, 15 min; series mostly up to 48.8 µM
Inconclusive results are not listed. Calls of active or inactive are those of the source. Calls come from the whole dose curve; as a rule, active = well fitted inhibition curve with a large enough effect; inconclusive = small, poorly fitted or top-dose-only effect; inactive = flat fitted curve, though single readings scatter.
QUANTITY MEASURED: outcome

molecule=C[C@@H]1O[C@@H](O[C@@H]2/C=C/C=C/C=C\C=C\C[C@H](C)OC(=O)/C=C/[C@H]3O[C@@H]3C[C@H](O)C[C@]3(O)C[C@@H](O)[C@@H](C(=O)O)[C@H](C2)O3)[C@H](O)[C@H](N)[C@@H]1O quantity_measured=outcome reported_measurement=inactive
molecule=c1ccc2scnc2c1 quantity_measured=outcome reported_measurement=inactive
molecule=C=C[C@@H]1C[C@]1(NC(=O)[C@@H]1C[C@@H](Oc2ncc(OC)c3ccc(Cl)cc23)CN1C(=O)[C@@H](NC(=O)OC(C)(C)C)C(C)(C)C)C(=O)NS(=O)(=O)C1CC1 quantity_measured=outcome reported_measurement=inactive
molecule="CC(C)(C)NCC(O)COc1ccccc1C1CCCC1 (stereo not given)" quantity_measured=outcome reported_measurement=inactive

Field request: outcome | item: C=C[C@]1(C)C[C@@H](OC(=O)CSC2C[C@H]3CC[C@@H](C2)N3C)C2(C)[C@H](C)CCC3(CCC(=O)[C@H]32)[C@@H](C)[C@@H]1O (stereo not given in full)
inactive

What about CC1CC2C3CCC4=CC(=O)C=CC4(C)C3(F)C(O)CC2(C)C1(O)C(=O)COC(=O)c1cccc(S(=O)(=O)O)c1 (stereo not given) ?
inactive

What about Cc1cc(C)n(CCc2nc3c4ccccc4nc(N4CCN(c5cccc(C)c5C)CC4)n3n2)n1 ?
inactive

What about CO[C@@H]1[C@@H](O[C@@H]2O[C@H](C)[C@@H](O[C@H]3C[C@@](C)(O)[C@H](O)[C@H](C)O3)[C@H](N(C)C)[C@H]2O)[C@@H](CC=O)C[C@@H](C)[C@@H](O[C@H]2CC[C@H](N(C)C)[C@@H](C)O2)/C=C/C=C/C[C@H](C)OC(=O)C[C@H]1O ?
inactive

What about NC(=O)C1CCCN1C(=O)C(Cc1cnc[nH]1)NC(=O)C1CCC(=O)N1 (stereo not given) ?
inactive

What about N[C@@H](C(=O)N[C@@H]1C(=O)N2C(C(=O)O)=C(Cl)CC[C@H]12)c1ccccc1 ?
inactive
